- experimental.system: PI3Kγ (Homo sapiens)
- Construct: HA; made in house; host or cells: Spodoptera frugiperda (Sf9) cells, baculovirus coinfection
- Sequence (P48736 whole entry, species assumed): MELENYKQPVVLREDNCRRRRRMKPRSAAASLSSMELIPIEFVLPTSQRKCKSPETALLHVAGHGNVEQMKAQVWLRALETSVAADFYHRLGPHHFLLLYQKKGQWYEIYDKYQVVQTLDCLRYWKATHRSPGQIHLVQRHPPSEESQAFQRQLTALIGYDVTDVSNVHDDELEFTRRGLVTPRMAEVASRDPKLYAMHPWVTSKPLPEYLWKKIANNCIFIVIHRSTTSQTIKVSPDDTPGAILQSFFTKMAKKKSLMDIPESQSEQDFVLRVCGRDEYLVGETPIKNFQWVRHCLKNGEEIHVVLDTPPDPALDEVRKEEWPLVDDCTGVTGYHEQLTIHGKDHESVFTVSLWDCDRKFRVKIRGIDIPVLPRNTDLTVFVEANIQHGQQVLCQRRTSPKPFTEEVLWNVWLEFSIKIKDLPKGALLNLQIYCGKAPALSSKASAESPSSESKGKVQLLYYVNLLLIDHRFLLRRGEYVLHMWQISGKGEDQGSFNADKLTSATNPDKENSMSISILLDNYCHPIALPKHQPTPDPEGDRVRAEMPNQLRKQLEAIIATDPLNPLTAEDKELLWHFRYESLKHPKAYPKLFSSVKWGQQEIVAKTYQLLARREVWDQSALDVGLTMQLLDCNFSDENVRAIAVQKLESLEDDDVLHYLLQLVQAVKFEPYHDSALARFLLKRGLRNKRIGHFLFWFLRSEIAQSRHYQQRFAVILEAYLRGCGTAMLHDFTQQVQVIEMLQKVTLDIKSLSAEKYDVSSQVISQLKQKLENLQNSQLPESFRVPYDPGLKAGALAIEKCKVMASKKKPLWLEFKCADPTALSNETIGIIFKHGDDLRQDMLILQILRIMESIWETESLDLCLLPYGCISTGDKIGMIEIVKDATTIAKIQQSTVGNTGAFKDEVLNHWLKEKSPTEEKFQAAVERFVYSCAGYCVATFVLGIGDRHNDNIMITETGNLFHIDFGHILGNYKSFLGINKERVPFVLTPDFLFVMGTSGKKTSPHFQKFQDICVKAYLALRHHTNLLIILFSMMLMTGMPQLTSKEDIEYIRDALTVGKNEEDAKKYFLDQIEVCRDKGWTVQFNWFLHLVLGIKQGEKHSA
- Sequence (Q8WYR1 whole entry partner, species assumed): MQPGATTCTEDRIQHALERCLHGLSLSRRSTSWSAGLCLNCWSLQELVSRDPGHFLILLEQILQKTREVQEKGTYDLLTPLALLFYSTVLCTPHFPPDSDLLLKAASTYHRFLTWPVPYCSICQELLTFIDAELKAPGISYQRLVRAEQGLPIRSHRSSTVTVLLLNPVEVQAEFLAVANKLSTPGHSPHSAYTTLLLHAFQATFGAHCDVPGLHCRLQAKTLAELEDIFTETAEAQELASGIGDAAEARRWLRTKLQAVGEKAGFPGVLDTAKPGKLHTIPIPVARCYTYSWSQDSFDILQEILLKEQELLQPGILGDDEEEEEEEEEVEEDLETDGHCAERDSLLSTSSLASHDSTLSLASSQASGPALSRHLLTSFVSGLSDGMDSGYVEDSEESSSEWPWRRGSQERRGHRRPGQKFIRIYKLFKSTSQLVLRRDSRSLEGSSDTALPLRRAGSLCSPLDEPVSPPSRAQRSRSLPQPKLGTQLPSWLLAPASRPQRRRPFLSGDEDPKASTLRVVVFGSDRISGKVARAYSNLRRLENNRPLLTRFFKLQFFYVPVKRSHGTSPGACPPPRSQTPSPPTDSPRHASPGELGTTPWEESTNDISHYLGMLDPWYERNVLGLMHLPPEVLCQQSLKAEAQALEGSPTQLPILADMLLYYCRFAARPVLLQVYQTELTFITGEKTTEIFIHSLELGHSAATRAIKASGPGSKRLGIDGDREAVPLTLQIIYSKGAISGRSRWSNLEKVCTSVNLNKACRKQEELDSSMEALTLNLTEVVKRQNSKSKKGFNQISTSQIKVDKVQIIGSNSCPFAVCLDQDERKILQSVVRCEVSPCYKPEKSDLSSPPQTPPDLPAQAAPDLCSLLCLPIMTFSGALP
- run.description: PI3Kγ in vitro kinase assay (32P-ATP, PIP2 lipid micelles, filter plate)
- Assay type: biochemical
- measurement.setup: purified recombinant p101/p110γ protein with G protein β1/γ2 subunits; 20 μM ATP; 25 μM PIP2; 20 minutes at room temperature
pIC50: −log10 of the molar value.
readout: pIC50

Please review the following examples before continuing.
compound	pIC50
COC(=O)CCc1ccc(Sc2c(C(=O)Nc3nnn[nH]3)sc3cc(OC)c(C)cc23)cc1	5.39
COc1ccc2sc(C(=O)Nc3nnn[nH]3)c(Sc3ccc(O)cc3)c2c1	5.56
COc1cc2c(SCCc3ccccc3)c(C(=O)Nc3nnn[nH]3)sc2cc1C	7.30
COc1cc2c(Sc3ccc(N(C)C)cc3)c(C(=O)Nc3nnn[nH]3)sc2cc1C	6.41
COc1cc2sc(C(=O)Nc3nnn[nH]3)c(SC(c3ccccc3)C(C)N(C)C(C)=O)c2cc1C (centres unmarked)	5.56
COc1cc2sc(C(=O)Nc3nnn[nH]3)c(Sc3cccc(O)c3)c2cc1OC	5.73
COc1ccc2sc(C(=O)Nc3nnn[nH]3)c(Sc3ccccc3Br)c2c1	5.53
COc1cccc(Sc2c(C(=O)Nc3nnn[nH]3)sc3cc(OC)c(C)cc23)c1	6.22
COc1cc2sc(C(=O)Nc3nnn[nH]3)c(Sc3ccc(C)cc3C)c2cc1OC	5.55
COc1cc2sc(C(=O)Nc3nnn[nH]3)c(Sc3ccc(O)cc3)c2cc1C	6.05

1. COc1ccc2sc(C(=O)Nc3nnn[nH]3)c(SCCc3ccccc3)c2c1
2. COc1cc2sc(C(=O)Nc3nnn[nH]3)c(Sc3ccc(C(C)C)cc3)c2cc1C
INPUT: Select the item whose pIC50 value is smaller, choosing between 1 and 2 . Answer by quoting the chosen item's label.
OUTPUT: 2
(2: 5.50, 1: 5.80)

P. CCc1ccccc1Sc1c(C(=O)Nc2nnn[nH]2)sc2cc(OC)c(OC)cc12
Q. COc1ccc2sc(C(=O)Nc3nnn[nH]3)c(Sc3ccccc3Cl)c2c1
INPUT: Select the item whose pIC50 value is smaller, choosing between P and Q . Answer by quoting the chosen item's label.
OUTPUT: Q

P. COc1cccc(Sc2c(C(=O)Nc3nnn[nH]3)sc3cc(OC)c(OC)cc23)c1
Q. COc1cc2sc(C(=O)Nc3nn[nH]n3)c(SCc3ccc(C#N)cc3)c2cc1OC
INPUT: Which value of pIC50 is numerically greater: that of P or that of Q ? Answer by quoting the chosen item's label.
OUTPUT: P

====

- experimental.system: PI3Kγ (Homo sapiens)
- Construct: HA
- run.description: PI3Kγ in vitro kinase assay (32P-ATP, PIP2 lipid micelles, filter plate)
- measurement.setup: purified recombinant p101/p110γ protein with G protein β1/γ2 subunits; 20 μM ATP; 25 μM PIP2; 20 minutes at room temperature
readout: IC50 (nM)

compound	recorded.result
COc1cc2sc(C(=O)Nc3nnn[nH]3)c(Sc3ccoc3C)c2cc1OC [Example 29]	2160

A. COc1cccc(Sc2c(C(=O)Nc3nnn[nH]3)sc3ccc(OC)cc23)c1 [Example 22]
B. COc1ccc(Sc2c(C(=O)Nc3nnn[nH]3)sc3cc(C)c(OC)cc23)cc1 [Example 37]
INPUT: Select the item whose IC50 value is smaller, choosing between A and B . Answer by quoting the chosen item's label.
OUTPUT: B
(B: 808 nM, A: 2930 nM)
